Source: PubChem BioAssay (NCI)

PROTOCOL DESCRIPTION: NCI Yeast Anticancer Drug Screen. Data for the mec2-1 strain (AID 157)
RUN PARAMETERS: S. cerevisiae mec2-1 strain, at 50.0 µM, active compounds read high
Compounds without any hit were thinned out: in the full panel of roughly 79,000, 15% have a hit.
# maps each entry to its growth inhibition
Use % as the unit, but write only the number.

MOLECULE: Cc1cccc2c(C=O)c[nH]c12
UNIT ABBREVIATION: %
growth inhibition: -3.1

MOLECULE: COc1nc2c(c(O)cn2C2OCC(OC(C)=O)C(OC(C)=O)C2OC(C)=O)c(=O)n1C (stereo unspecified)
UNIT ABBREVIATION: %
growth inhibition: -5.9

MOLECULE: C=CC(OC(=O)/C=C/C)OC(=O)/C=C/C
UNIT ABBREVIATION: %
growth inhibition: 0.85

MOLECULE: O=C(O)CCCCCCCCCC(=O)O
UNIT ABBREVIATION: %
growth inhibition: -17.5

Here is the next item to consider.
Measured growth inhibition, CCCC1CC(=O)NC(=O)C1C(=O)OC(C)(C)C (stereo unspecified) : -0.2
